Tested on: adult female Sprague-Dawley rats
Assay: rat infusion study: loss/recovery of righting reflex and walk (anaesthetic effect)
Format: in vivo
Details: time from end of infusion to independent locomotion
Method: All animal experiments were conducted at the Ruakura Research Centre, Hamilton, New Zealand, using experimental protocols reviewed and approved by the Ruakura Animal Ethics Committee (ethics ref 12604). Following acquisition of baseline physiologic parameters (heart rate, respiratory rate, PWR, and righting reflex (RR)) adult female Sprague-Dawley rats of approximately 350-450 g were put under non-traumatic restraint and the marginal vein of the tail was cannulated. […]
Would you kindly list Walk Time for each of these compounds?
Remember to follow the number with its unit.

{"compound": "CCCOC(=O)CCNC1(c2ccccc2Cl)CCCCC1=O.Cl (racemic) [rac-C2nPr]", "quantity measured": "Walk Time", "value observed": "0 s"}

Please give Walk Time, item by item, for the list that follows.
1. CCOC(=O)CCCCNC1(c2ccccc2Cl)CCCCC1=O.Cl (racemic) [rac-C4Et]
2. CCCOC(=O)CCCNC1(c2ccccc2Cl)CCCCC1=O.Cl (racemic) [rac-C3nPr]

158 ± 22 s
65 ± 33 s

Count: 2. Required value per item: Walk Time.
1. COC(=O)CCCCN(C)C1(c2ccccc2Cl)CCCCC1=O (centres unmarked) [compound 21]
2. CCOC(=O)CCN(C)C1(c2ccccc2Cl)CCCCC1=O (centres unmarked) [compound 19]

1. 201 s
2. 0 s
